Organism: Homo sapiens
assayOverview: To identify inhibition of the IFN signalling (Jak-Stat) pathway via expression of an eGFP reporter gene under the control of an IFN-stimulated response element (ISRE) containing MxA promoter.
Type: functional
Parameters: scale not given: direction of the effect not stated beside the values
details: 30 µM
valueKind: Percent Effect (%)
Give just the numeric value; % need not be written.

Here's what some known entries look like.
molecule: CCS(=O)(=O)c1ccc(N2CCC(NC(=O)c3cnn(C)c3)CC2)cc1
valueKind: Percent Effect
valueReported: 21.8
//
molecule: Cc1ccc(CNCc2ccc(-n3nc(C)cc3C)nc2)cc1
valueKind: Percent Effect
valueReported: 6.18
//
molecule: Cc1ncnc2c1CCN(c1cc(C(F)(F)F)ncn1)CC2
valueKind: Percent Effect
valueReported: 4.55
//
molecule: CC1c2ncc(COc3cccnc3)n2CCN1C(=O)Cc1ccco1 (stereo unspecified)
valueKind: Percent Effect
valueReported: -8.23
//
molecule: CSc1ncccc1C(=O)N1CCC(c2nc3c(C)cccc3[nH]2)CC1
valueKind: Percent Effect
valueReported: 3.12
//
molecule: CC(=O)c1cc(CC(=O)NCc2c(F)cccc2F)cs1
valueKind: Percent Effect
valueReported: 17.2

Input: Check the records and state Percent Effect for Cc1nnc(NC(=O)NCc2ccc(N3CCN(C)CC3)nc2)s1
Output: 3.4

Input: Check the records and state Percent Effect for NC(=O)COc1cccc(C(=O)N2CCCC(n3cccn3)C2)c1 (stereo unspecified)
Output: 4.13

Input: Check the records and state Percent Effect for CC(C)c1nnc2n1CCN(CC(=O)Nc1sccc1C#N)C2
Output: -0.485

Input: Check the records and state Percent Effect for O=C(C1CCC1)N1CCC2(COCc3cnc(N4CCOCC4)nc32)C1 (stereo unspecified)
Output: -2.75

Input: Check the records and state Percent Effect for Cc1cnn(CCCNC(=O)N2CCCCC(N3CCCC3)C2)c1 (stereo unspecified)
Output: 8.88

Origin of the recorded values: ChEMBL document CHEMBL3988442
